Data origin, for the record: paper PMC11537005

tested on: MRSA 103; assay: microbe, parasite or virus in culture; type: cell-based, Staphylococcus aureus; details: 103, 18 h
Residues, ends and D or L forms follow the SMILES beside them.
property-label: MIC (µM)
# output: bare number, implied unit µM

Data point: N=C(N)NCCC[C@H](NC(=O)CNC(=O)[C@H](CO)NC(=O)CNC(=O)[C@H](CCCNC(=N)N)NC(=O)[C@H](CCCNC(=N)N)NC(=O)[C@H](CCCNC(=N)N)NC(=O)[C@H](Cc1c[nH]c2ccccc12)NC(=O)[C@@H](N)Cc1c[nH]c2ccccc12)C(=O)N[C@@H](CCCNC(=N)N)C(=O)N[C@@H](CCCNC(=N)N)C(=O)N[C@@H](Cc1c[nH]c2ccccc12)C(=O)N[C@@H](Cc1c[nH]c2ccccc12)C(N)=O [W4] (H-WWRRRGSGRRRWW-NH2) ; MIC = 16
